The reported measurements were obtained from ChEMBL document CHEMBL1145047.

- ASSAYED_SYSTEM: Peroxisome proliferator-activated receptor delta (Homo sapiens)
- Sequence (Q03181 whole entry, the tested form may be a part): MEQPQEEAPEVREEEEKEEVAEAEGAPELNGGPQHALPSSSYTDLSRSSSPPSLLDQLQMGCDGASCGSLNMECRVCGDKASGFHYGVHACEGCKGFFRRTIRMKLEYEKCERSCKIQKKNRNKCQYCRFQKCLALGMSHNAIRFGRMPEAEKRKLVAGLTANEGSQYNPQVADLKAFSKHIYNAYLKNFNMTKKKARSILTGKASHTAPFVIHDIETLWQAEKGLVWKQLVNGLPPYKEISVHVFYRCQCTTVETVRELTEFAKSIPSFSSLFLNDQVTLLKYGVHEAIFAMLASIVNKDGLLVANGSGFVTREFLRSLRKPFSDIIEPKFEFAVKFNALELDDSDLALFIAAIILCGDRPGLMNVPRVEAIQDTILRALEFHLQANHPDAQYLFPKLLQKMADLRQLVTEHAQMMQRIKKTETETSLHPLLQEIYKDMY
- EXPERIMENT_NOTES: Agonist activity on Gal4 chimeric human Peroxisome proliferator activated receptor delta expressed in CHO-K1 cells
- Format: functional, cell-based
Consider the following molecules; for each one, report its EC50.
Numbers only, in µM.

# example entries with known answers
>  <MOLECULE>
CCC(Cc1ccc(OC)c(C(=O)NCc2ccc(OC(F)(F)F)cc2)c1)C(=O)O (stereo not given)

>  <EC50, µM>
0.9

$$$$
>  <MOLECULE>
CCC(Cc1ccc(OC)c(C(=O)NCc2ccc(Oc3ccccc3)cc2)c1)C(=O)O (stereo not given)

>  <EC50, µM>
3

$$$$
>  <MOLECULE>
CCC(Cc1ccc(OC)c(C(=O)NCc2ccc(OC)cc2)c1)C(=O)O (stereo not given)

>  <EC50, µM>
6.6

$$$$

// next item, EC50 requested
For record CCSC(Cc1ccc(OC)c(C(=O)NCc2ccc(C(F)(F)F)cc2)c1)C(=O)O (stereo not given) the listed EC50 is 3

* * *

- ASSAYED_SYSTEM: Peroxisome proliferator-activated receptor delta (Homo sapiens)
- EXPERIMENT_NOTES: Agonist activity on Gal4 chimeric human Peroxisome proliferator activated receptor delta expressed in CHO-K1 cells
- Format: functional, cell-based
Active and inactive are the calls of the source. The rule behind the calls is not given here.
MEASURED_ENDPOINT: IA

# example entries with known answers
>  <COMPOUND>
CCC(Cc1ccc(OC)c(C(=O)NCc2ccc(CCc3ccccc3)cc2)c1)C(=O)O (centres undefined)

>  <IA>
inactive

$$$$
>  <COMPOUND>
COc1ccc(CC(C(=O)O)c2ccccc2)cc1C(=O)NCc1ccc(C(F)(F)F)cc1 (centres undefined)

>  <IA>
inactive

$$$$
>  <COMPOUND>
COc1ccc(CC(Oc2ccccc2)C(=O)O)cc1C(=O)NCc1ccc(C(F)(F)F)cc1 (centres undefined)

>  <IA>
inactive

$$$$
>  <COMPOUND>
COc1ccc(CC(C(=O)O)C(C)C)cc1C(=O)NCc1ccc(C(F)(F)F)cc1 (centres undefined)

>  <IA>
inactive

$$$$
>  <COMPOUND>
CCC(CC)(Cc1ccc(OC)c(C(=O)NCc2ccc(C(F)(F)F)cc2)c1)C(=O)O

>  <IA>
inactive

$$$$
>  <COMPOUND>
COc1ccc(CC(SCc2ccccc2)C(=O)O)cc1C(=O)NCc1ccc(C(F)(F)F)cc1 (centres undefined)

>  <IA>
inactive

$$$$
>  <COMPOUND>
CCC(Cc1ccc(OC)c(C(=O)NCc2cccc(Oc3ccccc3)c2)c1)C(=O)O (centres undefined)

>  <IA>
inactive

$$$$
>  <COMPOUND>
CCC(Cc1ccc(OC)c(C(=O)NCc2ccccc2Oc2ccccc2)c1)C(=O)O (centres undefined)

>  <IA>
inactive

$$$$
>  <COMPOUND>
CCC(Cc1ccc(OC)c(C(=O)Nc2ccc(C(F)(F)F)cc2)c1)C(=O)O (centres undefined)

>  <IA>
inactive

$$$$
>  <COMPOUND>
COc1ccc(C(=O)O)cc1C(=O)NCc1ccc(C(F)(F)F)cc1

>  <IA>
inactive

$$$$

List IA for every entry below, keeping the order given.
1. CCC(Cc1ccc(OC)c(C(=O)N(C)Cc2ccc(C(F)(F)F)cc2)c1)C(=O)O (centres undefined)
2. COc1ccc(CCCC(=O)O)cc1C(=O)NCc1ccc(C(F)(F)F)cc1
3. COc1ccc(CC(Sc2ccccc2)C(=O)O)cc1C(=O)NCc1ccc(C(F)(F)F)cc1 (centres undefined)
4. COc1ccc(CC(OC)C(=O)O)cc1C(=O)NCc1ccc(C(F)(F)F)cc1 (centres undefined)

1. inactive
2. inactive
3. inactive
4. inactive

* * *

As an illustration, consider measured EC50 for compounds on Peroxisome proliferator-activated receptor gamma (Homo sapiens, UniProt P37231).
Sequence (P37231 whole entry): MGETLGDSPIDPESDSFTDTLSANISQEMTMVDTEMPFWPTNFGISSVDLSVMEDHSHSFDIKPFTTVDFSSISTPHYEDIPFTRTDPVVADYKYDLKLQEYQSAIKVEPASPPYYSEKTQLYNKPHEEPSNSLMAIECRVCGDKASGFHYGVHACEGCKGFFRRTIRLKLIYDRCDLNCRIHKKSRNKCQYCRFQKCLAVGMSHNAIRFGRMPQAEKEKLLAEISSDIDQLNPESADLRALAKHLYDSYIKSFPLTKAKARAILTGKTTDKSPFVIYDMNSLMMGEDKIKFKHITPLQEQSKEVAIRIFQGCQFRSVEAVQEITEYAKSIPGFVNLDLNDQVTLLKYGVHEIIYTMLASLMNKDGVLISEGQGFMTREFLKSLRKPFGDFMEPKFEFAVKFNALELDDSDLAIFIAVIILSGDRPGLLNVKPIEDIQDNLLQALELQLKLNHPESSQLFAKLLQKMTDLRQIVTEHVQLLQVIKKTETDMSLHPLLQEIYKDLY
Numbers only, in µM.

# example entries with known answers
>  <COMPOUND>
CCC(Cc1ccc(OC)c(C(=O)NCc2ccc(CCc3ccccc3)cc2)c1)C(=O)O (stereo not given)

>  <UNIT_OF_MEASUREMENT>
µM

>  <EC50>
5.4

$$$$
>  <COMPOUND>
CCC(Cc1ccc(OC)c(C(=O)NCc2ccc(OCCc3ccccc3)cc2)c1)C(=O)O (stereo not given)

>  <UNIT_OF_MEASUREMENT>
µM

>  <EC50>
3

$$$$
>  <COMPOUND>
CCC(Cc1ccc(OC)c(C(=O)NCc2ccc(-c3ccccc3)cc2)c1)C(=O)O (stereo not given)

>  <UNIT_OF_MEASUREMENT>
µM

>  <EC50>
4

$$$$

// next item, EC50 requested
Entry CCC(Cc1ccc(OC)c(C(=O)NCc2cccc(Oc3ccccc3)c2)c1)C(=O)O (stereo not given) ; assay system Peroxisome proliferator-activated receptor gamma (Homo sapiens, UniProt P37231); EC50 recorded at 6.2
